# Tested on: zebrafish embryos
# Stated Conditions: 5 µM, exposure through 120 hpf
Parameter Mortality (%): see the listing below.

Molecule | Mortality (%)
OCC(F)(F)C(F)(F)C(F)(F)C(F)(F)C(F)(F)C(F)F | 0%
O=C(O)C(F)(F)OC(F)(F)C(F)(F)OC(F)(F)C(F)(F)OC(F)(F)C(F)(F)C(F)(F)C(F)(F)F | 10%
O=S(=O)([O-])C(F)(F)C(F)(F)C(F)(F)C(F)(F)C(F)(F)C(F)(F)C(F)(F)C(F)(F)F.[K+] [compound 6, Potassium perfluorooctanesulfonate] | 2.2%

----------
Parameter tail dysplasia, Mean: see the listing below.
# Test system: zebrafish embryos
# Stated Conditions: 5μM through 120 hpf, malformation rate
Measured Parameter: tail dysplasia, Mean (%)

Molecule | Measured Parameter | Measurement Units | Reported Measurement
FC(F)(F)C(F)(F)CNCC(F)(F)C(F)(F)F | tail dysplasia, Mean | % | 1.11
O=C(F)C(F)(F)C(F)(F)C(F)(F)C(=O)F [compound 63, Perfluoroglutaryl difluoride] | tail dysplasia, Mean | % | 0.00
CC(F)(F)CC(F)(F)F | tail dysplasia, Mean | % | 0.00
NC(C(F)(F)F)C(F)(F)F | tail dysplasia, Mean | % | 0.00

----------
# Test system: zebrafish embryos
# Stated Conditions: 5μM through 120 hpf, malformation rate

Molecule | pericardial oedemata, Mean (%)
OCC(F)(F)C(F)(F)C(F)(F)CO [compound 35, Hexafluoroamylene glycol] | 1.11
O=C(O)C=C(C(F)(F)F)C(F)(F)F [compound 23] | 1.11
CC(O)C(F)(F)C(F)(F)F (centres unmarked) [compound 62, 1-Pentafluoroethylethanol] | 1.11
NS(=O)(=O)C(F)(F)C(F)(F)C(F)(F)C(F)(F)C(F)(F)C(F)(F)C(F)(F)C(F)(F)F [compound 60, Perfluorooctanesulfonamide] | 0.00
NC(=O)C(F)(F)C(F)(F)C(F)(F)F [compound 31, Heptafluorobutyramide] | 0.00
O=S(=O)(O)C(F)(F)C(F)(F)C(F)(F)C(F)(F)F [compound 73, Perfluorobutanesulfonic acid] | 0.00
OCCCC(F)(F)C(F)(F)C(F)(F)F [compound 49, 3-(Perfluoropropyl)propanol] | 0.00
FC(F)(F)C(F)(F)CNCC(F)(F)C(F)(F)F [compound 45, Bis(1H,1H-perfluoropropyl)amine] | 1.11
OC(O)(C(F)C(O)(O)C(F)(F)F)C(F)(F)F [compound 66, 3H-Perfluoro-2,2,4,4-tetrahydroxypentane] | 0.00
O=C(O)C(F)(OC(F)(F)C(F)(F)C(F)(F)F)C(F)(F)F (centres unmarked) [compound 37, Perfluoro-2-methyl-3-oxahexanoic acid] | 2.22
O=S(=O)([O-])C(F)(F)C(F)(F)C(F)(F)C(F)(F)C(F)(F)C(F)(F)C(F)(F)C(F)(F)F.[K+] [compound 6, Potassium perfluorooctanesulfonate] | 1.11
O=C(O)C(F)(F)OC(F)(F)C(F)(F)OC(F)(F)C(=O)O [compound 7, Perfluoro-3,6-dioxaoctane-1,8-dioic acid] | 2.22
C=CC(F)(F)C(F)(F)C(F)(F)C(F)(F)F [compound 59, 1H,1H,2H-Perfluoro-1-hexene] | 0.00
FC(F)(F)COC(OCC(F)(F)F)OCC(F)(F)F [compound 1, tris(Trifluoroethoxy)methane] | 2.22
OCC(F)(F)C(F)(F)C(F)(F)F [compound 11, Heptafluorobutanol] | 4.44
O=C(O)C(F)(F)OC(F)(F)C(F)(F)OC(F)(F)F [compound 54, Perfluoro-3,6-dioxaheptanoic acid] | 1.11
CC=CC(F)(F)C(F)(F)C(F)(F)F [compound 22, 1-Propenylperfluoropropane] | 0.00
CC(F)(F)CC(F)(F)F [compound 29, 1,1,1,3,3-Pentafluorobutane] | 0.00
OCCCCC(F)(F)C(F)(F)C(F)(F)C(F)(F)F [compound 40, 4:4 Fluorotelomer alcohol] | 0.00
C=C(C)C(=O)OCCC(F)(F)C(F)(F)C(F)(F)C(F)(F)C(F)(F)C(F)(F)F [compound 2, 6:2 Fluorotelomer methacrylate] | 3.33
NC(=O)C(F)(F)C(F)(F)C(F)(F)C(F)(F)F [compound 19, Nonafluoropentanamide] | 0.00
CC(=O)C(F)(F)C(F)(F)F [compound 55, Methyl perfluoroethyl ketone] | 1.11
O=C(O)C(F)(F)OC(F)(F)C(F)(F)OC(F)(F)C(F)(F)OC(F)(F)C(F)(F)C(F)(F)C(F)(F)F [compound 34, Perfluoro-3,6,9-trioxatridecanoic acid] | 0.00
O=S(=O)([O-])C(F)(F)C(F)(F)C(F)(F)C(F)(F)F.[K+] [compound 57, Potassium perfluorobutanesulfonate] | 1.11
FC(F)(F)COCC(F)(F)F [compound 27, Flurothyl, reference compound] | 2.22
FC(F)=C(F)OC(F)(F)C(F)(F)C(F)(F)F [compound 53, Heptafluoropropyl trifluorovinyl ether] | 0.00
OCC(F)(F)C(F)(F)C(F)(F)C(F)(F)C(F)(F)C(F)F [compound 67, Dodecafluoroheptanol] | 1.11
O=CC(F)(F)C(F)(F)C(F)(F)C(F)F [compound 72, 5H-Perfluoropentanal] | 0.00
NCC(F)(F)C(F)(F)C(F)(F)C(F)(F)F [compound 68, 1H,1H-Perfluoropentylamine] | 0.00

----------
# System: zebrafish embryos
# Stated Conditions: 5μM through 120 hpf, malformation rate
Parameter pericardial oedemata, Mean: see the listing below.

Molecule | pericardial oedemata, Mean (%)
NC(O)(C(F)(F)F)C(F)(F)F | 0.00
COC(=O)CCC(F)(F)C(F)(F)C(F)(F)C(F)(F)F [compound 39, Methyl 2H,2H,3H,3H-perfluoroheptanoate] | 0.00
O=C(O)C(F)(F)C(F)(F)C(F)(F)C(F)(F)C(F)(F)C(F)(F)C(F)(F)C(F)(F)F | 0.00
FC(F)OCC(F)(F)C(F)(F)F | 1.11
COC(=O)C(F)(F)C(F)(F)C(F)(F)C(F)(F)C(F)(F)F [compound 36, Methyl perfluorohexanoate] | 1.11
O=C(O)C(F)(F)C(F)(F)C(F)(F)C(F)(F)C(F)(F)F | 0.00
CCOC(F)(F)C(F)(F)C(F)(F)C(F)(F)F | 0.00
N.O=C(O)C(F)(F)C(F)(F)C(F)(F)C(F)(F)C(F)(F)C(F)(F)C(F)(F)F [compound 21, Ammonium perfluorooctanoate] | 2.22
NC(=O)C(F)(F)C(F)(F)C(F)(F)C(F)(F)C(N)=O [compound 58, Octafluoroadipamide] | 1.11
OCC(F)(F)C(F)(F)C(F)(F)C(F)F | 4.44
C=CC(F)(C(F)(F)F)C(F)(F)C(F)(F)F (stereo not drawn) | 0.00
CCN(CCO)S(=O)(=O)C(F)(F)C(F)(F)C(F)(F)C(F)(F)C(F)(F)C(F)(F)C(F)(F)C(F)(F)F | 1.11
COC(=O)C(F)(F)C(F)(F)C(F)(F)F [compound 47, Methyl heptafluorobutyrate] | 2.22
CCNS(=O)(=O)C(F)(F)C(F)(F)C(F)(F)C(F)(F)C(F)(F)C(F)(F)C(F)(F)C(F)(F)F [compound 24, N-Ethylperfluorooctanesulfonamide] | 1.11
O=CC(F)(F)C(F)(F)C(F)(F)F | 2.22

----------
Parameter tail dysplasia, Mean: see the listing below.
# Test system: zebrafish embryos
# Stated Conditions: 5μM through 120 hpf, malformation rate

Molecule | tail dysplasia, Mean, %
O=S(=O)(O)C(F)(F)C(F)(F)C(F)(F)C(F)(F)C(F)(F)C(F)(F)C(F)(F)C(F)(F)F [compound 46, Perfluorooctanesulfonic acid] | 0.00
OCC(F)(F)C(F)(F)C(F)(F)C(F)F [compound 48, 1H,1H,5H-Perfluoropentanol] | 1.11
CC=CC(F)(F)C(F)(F)C(F)(F)F [compound 22, 1-Propenylperfluoropropane] | 0.00
NC(=O)C(F)(F)C(F)(F)C(F)(F)F [compound 31, Heptafluorobutyramide] | 0.00
OCC(F)(F)C(F)(F)C(F)(F)CO [compound 35, Hexafluoroamylene glycol] | 0.00
O=C(O)C=C(C(F)(F)F)C(F)(F)F [compound 23] | 3.33
OCCC(F)(F)C(F)(F)C(F)(F)C(F)(F)F [compound 41, 4:2 Fluorotelomer alcohol] | 0.00
FC(F)(F)COCC(F)(F)F [compound 27, Flurothyl, reference compound] | 0.00
O=C(O)C(F)(F)C(F)(F)C(F)(F)C(F)(F)C(F)(F)C(F)(F)C(F)(F)C(F)(F)F [compound 17, Perfluorononanoic acid] | 0.00
OCC(F)(F)C(F)(F)C(F)(F)C(F)(F)C(F)(F)C(F)(F)C(F)(F)C(F)(F)C(F)(F)C(F)(F)C(F)(F)F [compound 50, 11:1 Fluorotelomer alcohol] | 1.11
O=C(O)C(F)(OC(F)(F)C(F)(F)C(F)(F)F)C(F)(F)F (centres unmarked) [compound 37, Perfluoro-2-methyl-3-oxahexanoic acid] | 1.11
O=C(O)C=CC(F)(C(F)(F)F)C(F)(F)F [compound 56, 3-(Perfluoroisopropyl)-2-propenoic acid] | 0.00
O=C(O)C(F)(F)OC(F)(F)C(F)(F)OC(F)(F)C(F)(F)OC(F)(F)C(F)(F)C(F)(F)C(F)(F)F [compound 34, Perfluoro-3,6,9-trioxatridecanoic acid] | 0.00
COC(=O)CCC(F)(F)C(F)(F)C(F)(F)C(F)(F)F [compound 39, Methyl 2H,2H,3H,3H-perfluoroheptanoate] | 0.00
